# Test system: Malme-3M
# Method summary: NCI tumour cell line growth inhibition, 48 h
The source made the active and inactive calls. No stated cut-off is given here; in the data, active = GI50 up to about 1.1 µM and inactive = higher.
Assay readout: GI50

Example entries begin here.
| Compound | Assay readout | Reported result |
| --- | --- | --- |
| COc1ccc(-c2cc3ccccc3[nH]c2=O)cc1OC | GI50 | > 100 µM (inactive) |
| COC(=O)C(C(=O)C(=O)Nc1ccccc1C#N)c1nc2ccc([N+](=O)[O-])cc2nc1O (stereo not drawn) | GI50 | > 100 µM (inactive) |

We next turn to a different compound, shown below.
Prompt: # return recorded GI50 for entry `NC(=O)/N=C1\NCCC(=O)N1CCc1c[nH]c2ccccc12`
Completion: 18.4 µM (inactive)

====

# System: U-251
# Method summary: NCI tumour cell line growth inhibition, 48 h
Active and inactive are the calls of the source. No stated cut-off is given here; in the data, active = GI50 up to about 1.1 µM and inactive = higher.
Consider the following compounds; for each one, report its GI50.

Here is how some compounds turned out for GI50.
| Compound | GI50 |
| --- | --- |
| C[S+](C)CC(=O)c1ccc2c(c1)Sc1ccccc1O2 | 7.19 µM (inactive) |
| CC(C(=O)c1ccc(Cl)cc1)/C(=N/NC(=O)NN)C(=O)Nc1cccc(C(F)(F)F)c1 (stereo not given) | > 100 µM (inactive) |
| Cc1[nH]c(=O)[nH]c(=O)c1C(=O)N(CCO)Cc1ccccc1 | > 100 µM (inactive) |

Each of the following entries comes with a recorded value; kindly state GI50 for each.
1. N#CC(N)(C(=O)C(=O)NCCCNC(=O)C(=O)C(N)(C#N)c1ccc(Cl)cc1)c1ccc(Cl)cc1 (stereo not given)
2. Cc1ccc(Nc2nc3c(=O)n(C)c(=O)n(C)c3nc2Nc2ccc(C)cc2)cc1

Completion:
1. > 100 µM (inactive)
2. 16.3 µM (inactive)

Batch of 6 compounds: report GI50 for each.
1. O=C(c1ccccn1)C1(N2CCCCC2)CCCCC1
2. OCCN(C1=NCCN1)/[N+](=C\c1ccccn1)[CH-]c1ccccn1
3. COc1ccc(/C=N/Nc2nc3ccccc3c(=O)n2-c2ccccc2)c(OCc2ccccc2)c1
4. COc1ccc(C(=O)Nc2ccn(CCOC(=O)c3ccc(OC)cc3)c(=O)n2)cc1
5. COc1cc2cc[n+](C)c(Cc3ccccc3)c2cc1OC
6. CC1=C(C(=O)Nc2ccc([N+](=O)[O-])cc2)C(c2ccco2)C(C(=O)Nc2ccc([N+](=O)[O-])cc2)=C(C)N1

Completion:
1: > 100 µM (inactive); 2: > 100 µM (inactive); 3: > 100 µM (inactive); 4: 86.7 µM (inactive); 5: > 100 µM (inactive); 6: 21.9 µM (inactive)

Please report GI50 for every entry that follows.
1. O/N=C\c1c(O)ccc2ccccc12
2. CC1=C(C(=O)Nc2cc(F)c(F)cc2F)C(c2ccc(N(C)C)cc2)C(C(=O)Nc2cc(F)c(F)cc2F)=C(C)N1
3. CC1C(c2ccccc2O)c2cc3c(cc2OC1N1CCCC1)OCO3 (stereo not given)
4. N#Cc1cc2c(cc1Cl)Sc1nccn1S2(=O)=O
5. CC1CCc2c(sc3ncnc(N/N=C/c4ccc(Cl)cc4)c23)C1 (stereo not given)
6. CC(C)(C)OC(=O)NCCC1CN(C(=O)c2ccccc2)c2ccccc21 (stereo not given)
7. Clc1ccc(OCc2nn3c(CCc4nnc5sc(COc6ccc(Cl)cc6)nn45)nnc3s2)cc1
8. COc1cccc(NC(=O)C(C)(C)C)c1SSc1c(NC(=O)C(C)(C)C)cccc1OC

Completion:
51.8 µM (inactive)
28.9 µM (inactive)
31.7 µM (inactive)
1.6 µM (inactive)
31.9 µM (inactive)
40 µM (inactive)
20.7 µM (inactive)
17.3 µM (inactive)

Prompt: Give a short answer stating reported GI50 for `O=C(/C=C/c1ccccc1)Oc1cccc(Br)c1` .
Completion: 29.5 µM (inactive)

====

# Test system: CCRF-CEM
# Method summary: NCI tumour cell line growth inhibition, 48 h
Active and inactive are the calls of the source. Cut-off read from the data, not from the text of the source: active = GI50 up to about 1.1 µM and inactive = higher.
Assay readout: GI50

| Compound | GI50 |
| --- | --- |
| CSCCC(NC(=O)Cc1ccc(C(=O)c2ccccc2)cc1)C(=O)N1CCN(CCCCN2c3ccccc3Sc3cc(N=[N+]=[N-])ccc32)CC1 (stereo not drawn) | 49.3 µM (inactive) |
| NS(=O)(=O)c1ccc(NC(=O)COC(=O)c2cccc3c(=O)c4ccccc4[nH]c23)cc1 | 38.5 µM (inactive) |
| Cc1cc(C)c(S(=O)(=O)N(CCCN)OCCON(CCCN)S(=O)(=O)c2c(C)cc(C)cc2C)c(C)c1 | 2.71 µM (inactive) |
| O=C(CN1CCNCCN(CC(=O)N2CCCCC2)CCNCC1)N1CCCCC1 | 52.4 µM (inactive) |

Give GI50 for all compounds that follow.
1. O=NN(CCCl)C(=O)NCc1ccc[n+]([O-])c1
2. Nc1ccc(S(=O)(=O)NCCS(=O)(=O)O)cc1
3. C=CCOc1ccccc1/N=N/C(C#N)=N\Nc1ccccc1OCC=C
4. COC(=O)c1ccccc1NC(=O)C(=O)CC(=O)c1ccccc1NC1=CC(=O)C(=O)c2ccccc21

Completion:
1. 65.8 µM (inactive)
2. > 100 µM (inactive)
3. > 100 µM (inactive)
4. 3.17 µM (inactive)

====

# Tested on: UACC-62
# Method summary: NCI tumour cell line growth inhibition, 48 h
The source made the active and inactive calls. Rule as the data show it: active = GI50 up to about 1.1 µM and inactive = higher.
Write down one outcome, taken from 1 (yes) = active, 0 (no) = inactive

| Compound | Group |
| --- | --- |
| Nc1ccn(C2OC(COP(=O)(O)OCC3OC(n4cc(F)c(=O)[nH]c4=O)CC3O)C(O)C2O)c(=O)n1 (centres undefined) | 1 (yes) |

Prompt: I would be grateful if you could indicate the recorded call for NC(=O)NC(=O)C1CCC(=O)N1S(=O)(=O)c1ccc(Cl)cc1 (centres undefined) .
Completion: 0 (no)

Prompt: Could you check what this test reported for `NC(N)=NCCC[C@H](N)C(=O)NCC(=O)N[C@@H](CC(=O)O)c1ncc(NC(=O)C(F)(F)F)o1` ?
Completion: 0 (no)

====

Assignment: determine reported GI50 for the given compounds.
# Tested on: UO-31
# Method summary: NCI tumour cell line growth inhibition, 48 h
Activity calls are given as the source filed them. Rule as the data show it: active = GI50 up to about 1.1 µM and inactive = higher. Non-standard residues stand in square brackets, D forms with d. Residues, ends and D or L forms follow the SMILES beside them. ξ: configuration not given here. *: point of attachment. ξHyp = O=C(O)C1CC(O)CN1; Cbz = O=C(OCc1ccccc1)*

Sample answers from the record:
| Compound | GI50 |
| --- | --- |
| COc1cc(-c2c3c(cc4c2OCO4)[C@@H](Nc2ccc(-c4ccc(-c5ccc(N[C@@H]6c7cc8c(cc7C(c7cc(OC)c(O)c(OC)c7)[C@H]7C(=O)OC[C@H]67)OCO8)cc5)cc4)cc2)[C@H]2COC(=O)[C@@H]2C3)cc(OC)c1O (stereo partly specified) | 3.13 µM (inactive) |
| Cc1oc2c(c1C)S(=O)(=O)C(C#N)C(c1ccccc1)N2 (stereo unspecified) | 41.5 µM (inactive) |
| Cc1ccc(Nc2nc3c(=O)n(C)c(=O)n(C)c3nc2Nc2ccc(C)cc2)cc1 | 12.1 µM (inactive) |
| Cc1cccc(N2C(=O)C3ON(C(C(N)=O)c4ccccc4)C(c4c5ccccc5c(Cl)c5ccccc45)C3C2=O)c1C (stereo unspecified) | 16.4 µM (inactive) |
| COc1cccc(NC(=O)C(C)(C)C)c1SSc1c(NC(=O)C(C)(C)C)cccc1OC | 31.5 µM (inactive) |
| NC(=O)CNC(=O)C1CC(O)CN1C(=O)OCc1ccccc1 (stereo unspecified) (Cbz-[ξHyp]-Gly-NH2) | > 100 µM (inactive) |
| CCOC(=O)C(O)(NC(=O)c1ccc(F)cc1)C(F)(F)F (stereo unspecified) | > 100 µM (inactive) |
| O=C(/C=C/c1cccc([N+](=O)[O-])c1)c1ccc([N+](=O)[O-])cc1 | > 100 µM (inactive) |

Provide the reported GI50 of each entry below, same order.
1. CSCCC(NC(=O)Cc1ccc(C(=O)c2ccccc2)cc1)C(=O)N1CCN(CCCCN2c3ccccc3Sc3cc(N=[N+]=[N-])ccc32)CC1 (stereo unspecified)
2. CC(C)(C)OC(=O)NCCC1CN(C(=O)c2ccccc2)c2ccccc21 (stereo unspecified)

Completion:
1: 34.8 µM (inactive); 2: 23.7 µM (inactive)

Dear reader, for each entry below, please note its GI50.
1. NC(=S)N/N=C(/CC(=O)c1ccc([N+](=O)[O-])cc1)C(=O)Nc1ncc([N+](=O)[O-])s1
2. CC(=O)Nc1ccc2c(c1)nc1c3ccccc3ccn21

Completion:
1: > 100 µM (inactive); 2: 90.4 µM (inactive)

For every record below, what is its GI50?
1. COc1ccc(/C=C(\Cl)c2ccc(OC)cc2)cc1
2. Cc1c(C)c(C)c(Cn2[nH]c(=O)n(C)c2=O)c(C)c1C
3. [N-]=[N+]=C(C(=O)CN1CCCC1=O)S(=O)(=O)c1ccccc1

Completion:
["> 100 µM (inactive)", "> 100 µM (inactive)", "> 100 µM (inactive)"]

Prompt: Provide GI50 value for the following compound: `NS(=O)(=O)c1ccc(NC(=O)COC(=O)c2cccc3c(=O)c4ccccc4[nH]c23)cc1`
Completion: 23.3 µM (inactive)
